Tested on: Lefty1
experimentNotes: Lefty1 binders on small-molecule microarrays, primary screen, biochemical, small-molecule microarray, 635/667 nm fluorescence (AID 1139)
experimentalContext: small-molecule microarray binding, fluorescence 635/667; higher = more signal
testReadout: composite z-score
Returns: the value as a bare number; no unit string appended.

## Input Give composite z-score for the following compound: O=C1OCCC/C=C\[C@H]2OC34C=CCN(Cc5ccccc5)C(=O)[C@H]3N(CCCCCCO)C(=O)[C@@H]4C12 (stereo partly drawn)
## Output -1.55

## Input Give composite z-score for the following compound: C=CCNC(=O)[C@H]1[C@@H]2C(=O)O[C@@H](c3ccccc3)[C@@H](c3ccccc3)N2[C@@H](c2ccc(OCCO)cc2)[C@]12C(=O)N(C(=O)OCCOC)c1ccccc12
## Output 0.807

## Input Give composite z-score for the following compound: C=CCN(Cc1ccccc1)C(=O)C(c1cccs1)N(CCOCCO)C(=O)/C=C\C(=O)O (stereo not drawn)
## Output -2.47

## Input Give composite z-score for the following compound: CCOC(=O)C[C@H]1[C@H](OC(=O)Cc2ccc3c(c2)OCO3)[C@@H](NC(=O)c2ccc3ccccc3c2)c2cc(OCCCO)ccc2N1C(=O)c1ccccc1
## Output 0.593

## Input Give composite z-score for the following compound: O=C1C[C@]2(c3ccc([N+](=O)[O-])cc3)C(=O)N(CCN3CCOCC3)c3cc(CO)ccc3[C@H]2N1C1CCCCC1
## Output -0.599

## Input Give composite z-score for the following compound: C#CCN(Cc1ccccc1Br)C(/C=C/c1ccccc1)CO (stereo not drawn)
## Output 0.0437

## Input Give composite z-score for the following compound: COCC(=C=CC[C@H](O)c1ccccc1OCCO)C[C@H](O)c1cc(Cl)cc(Cl)c1O
## Output 0.685

## Input Give composite z-score for the following compound: O=C(NCc1ccccc1)[C@@]1(Cc2ccccc2)N=C(c2ccc(OCCCO)cc2)O[C@H]1c1ccccc1
## Output -0.872
